Source of measurements: PubChem BioAssay (NCI)

# Tested on: M14 melanoma
# procedure.details: NCI tumour cell line growth inhibition, 48 h; in the data active = GI50 below about 0.43 µM; inactive = the rest
Choose the fitting class; nothing outside active, inactive is accepted.

As a guide, the following entries are already answered.
In [3]: df
Out[3]:
                                   compound  label_value
0  CCCCCCNC(=O)Oc1ccc(/C(=C(/C)Cc2ccc(OC)cc2)c2ccc(OCCN(C)C)cc2)cc1     inactive
1          CCCCCCNC(=O)n1cc(F)c(=O)[nH]c1=O     inactive
2  COc1ccc([C@@H](O)c2cc(-c3ncnc4cc(N5CCOCC5)ccc34)c(F)cc2Cl)nn1     inactive

Task: Call for entry COc1cc(/C=C2\CN(C(=O)CCN3CCC(=NO)CC3)C/C(=C\c3cc(OC)c(OC)c(OC)c3)C2=O)cc(OC)c1OC :
Result: active

Task: Call for entry COc1cc(/C=C2\CC3C4CC=C5C[C@@H](O)CC[C@]5(C)C4CC[C@]3(C)C2=O)ccc1OCCCn1ccnc1 (stereo partly drawn) :
Result: inactive

Task: Call for entry C[C@]12CC[C@@H](OC(=O)N(CCCl)N=O)C[C@@H]1CC[C@@H]1[C@@H]2CC[C@]2(C)C(=O)CC[C@@H]12 :
Result: inactive

Task: Call for entry CC1(C)[C@@H](OC(N)=O)C=C[C@]2(CO)[C@H]3CC[C@]4(C)[C@@H](c5ccc(=O)oc5)[C@@H](Cl)C[C@]4(O)C3=CC[C@@H]12 :
Result: active

Task: Call for entry CCCCNC(=O)Oc1ccc(/C(=C(/CC)Cc2ccccc2)c2ccc(OCCN3CCCCCC3)cc2)cc1 :
Result: inactive

###

# Tested on: BT-549 breast
# procedure.details: NCI tumour cell line growth inhibition, 48 h; in the data active means GI50 below about 0.43 µM; inactive means the rest
Choose the fitting class; nothing outside Yes (active), No (inactive) is accepted.

As a guide, the following entries are already answered.
smiles.record	label.value
CCCCNC(=O)Oc1ccc(/C(=C(/CC)Cc2ccccc2)c2ccc(OCCN3CCCCCC3)cc2)cc1	No
CCOC(=O)Nc1nc2cc(OCC)ccc2s1	No
CCOC(=O)c1c2c(n(Cc3ccccc3)c1C)-c1nc(Cc3ccccc3)[nH]c1C(=O)C2=O	No
N=c1ccc2nc3c(cc(N)c4ccccc43)oc-2c1	Yes
COc1ccc([C@@H](O)c2cc(-c3ncnc4cc(N5CCOCC5)ccc34)c(F)cc2Cl)nn1	No

Task: Call for entry CCN(CC)CCOc1c(OC)c(Br)cc2c(C)c(C(=O)OC)oc12 :
Result: No

Task: Call for entry O=C(N/N=C/c1ccc(Cl)cc1)c1[nH]c2ccc(Cl)cc2c1-c1ccccc1 :
Result: Yes

Task: Call for entry Cc1cc2nc(-c3c(N)ncc(C#N)c3-c3ccc(Cl)cc3)[nH]c2cc1C :
Result: No

Task: Call for entry CC[C@]1(O)C[C@@H]2CN(CCc3c([nH]c4ccccc34)[C@@](C(=O)OC)(c3cc4c(cc3OC)N(C)[C@H]3[C@@](O)(C(N)=O)[C@H](O)[C@]5(CC)[C@@H]6C[C@@H]6CN6CC[C@]43[C@@H]65)C2)C1 :
Result: Yes

###

# Lookup of reported TGI keyed by entry
# Tested on: MDA-MB-231 breast
# procedure.details: NCI tumour cell line growth inhibition, 48 h
The answer is to be given in µM; state only the numeric part.

Illustrative cases are given below, each with its answer.
molecule	units.of.measure	result
C[C@]12CC[C@@H](OC(=O)N(CCCl)N=O)C[C@@H]1CC[C@@H]1[C@@H]2CC[C@]2(C)C(=O)CC[C@@H]12	µM	29.8
N=c1ccc2nc3c(cc(N)c4ccccc43)oc-2c1	µM	1.21
COC(=O)c1ccc(CN2C(=O)C(Cl)=C(Nc3ccc(OC)c(Cl)c3)C2=O)cc1	µM	26.3
CCN(CC)C1Oc2cc3c(cc2C(c2cc(OC)c(OC)c(OC)c2)C1C)OCO3 (configuration not stated)	µM	65.9
CCCCNC(=O)Oc1ccc(/C(=C(/CC)Cc2ccccc2)c2ccc(OCCN3CCCCCC3)cc2)cc1	µM	36.6
C=C(C)[C@@H]1CC[C@]2(CO)CC[C@]3(C)[C@H](CC[C@@H]4[C@@](C)(CCCN)[C@H](C(=C)C)CC[C@]43C)[C@@H]12	µM	3.19
CCCCN(CCCC)CCc1c(C)cc(C)c(CCN(CCCC)CCCC)c1O	µM	8.56
CCCCCCNC(=O)n1cc(F)c(=O)[nH]c1=O	µM	24.5
CC(C)(CN1CCCCC1)C(/C=C/c1ccccc1)=N\NC(=O)N/N=C(/C=C/c1ccccc1)C(C)(C)CN1CCCCC1	µM	2.81
COc1ccc(C2SCC(=O)N2NC(=O)C(C)Oc2ccc(Cl)cc2Cl)cc1 (configuration not stated)	µM	81

Task: Which TGI is listed for CC[C@@]12C=CCN3CC[C@]4(c5cc(NC(=O)COc6cc(OCC(=O)Nc7cc8c(cc7OC)N(C)[C@H]7[C@@](O)(C(=O)OC)[C@H](OC(C)=O)[C@]9(CC)C=CCN%10CC[C@]87[C@@H]%109)cc7oc(-c8ccccc8)cc(=O)c67)c(OC)cc5N(C)[C@@H]4[C@](O)(C(=O)OC)[C@H]1OC(C)=O)[C@H]32 ?
Result: 9.08

Task: Which TGI is listed for COc1cc2cc(C(=O)N3CC(CCl)c4c3cc(NC(=O)C(C)Nc3c([N+](=O)[O-])cc(C(=O)NCCN(C)C)cc3[N+](=O)[O-])c3ccccc43)[nH]c2c(OC)c1OC (configuration not stated) ?
Result: 0.342

Task: Which TGI is listed for O=C(N/N=C/c1ccc(Cl)cc1)c1[nH]c2ccc(Cl)cc2c1-c1ccccc1 ?
Result: 0.633

Task: Which TGI is listed for CNCCNc1nc2ccccc2c2c(=O)c3cc(OC)ccc3sc12 ?
Result: 3.08

Task: Which TGI is listed for C=CC(OC(C)=O)c1ccc(OC(C)=O)cc1 (configuration not stated) ?
Result: 9.12

###

# Tested on: PC-3 prostate
# procedure.details: NCI tumour cell line growth inhibition, 48 h
property: TGI

Illustrative cases are given below, each with its answer.
>>> print(df.to_string())
                                   molecule    result
0  CC1CN=C(c2ccc(-c3nc(-c4ccc(C5=NCC(C)N5)cc4)nc(N(C)C)n3)cc2)N1 (centres undefined)   4.42 µM
1  C[C@]12CC[C@@H](OC(=O)N(CCCl)N=O)C[C@@H]1CC[C@@H]1[C@@H]2CC[C@]2(C)C(=O)CC[C@@H]12   > 96 µM
2  CCOC(=O)CCC(NC(=O)OCc1ccccc1)C(=O)NC(CCC(=O)OCC)C(=O)NC(CCC(=O)OCC)C(=O)NNC(=O)OC(C)(C)C (centres undefined)  > 100 µM

Now look at this one.
Task: Which TGI is listed for NC(=S)N/N=C1\CCCC1C(O)(C(F)(F)Cl)C(F)(F)Cl (centres undefined) ?
Result: > 10 µM

###

# Test system: HT29 colon
# procedure.details: NCI tumour cell line growth inhibition, 48 h
property: TGI

Illustrative cases are given below, each with its answer.
In [3]: df
Out[3]:
                                   compound  test_system  property    result
0  COC(=O)[C@]1(C)CCC[C@@]2(C)[C@@H]3C[C@@H]4[C@H]5C[C@@]3(CC[C@@H]21)C[C@@]45C   HT29 colon       TGI   27.6 µM
1  CCn1c(=O)c2c3ccc(OC(C)=O)cc3[nH]c2c2ccc(OC(C)=O)cc21   HT29 colon       TGI  > 100 µM

Task: Which TGI is listed for C[C@]12CC[C@H]3[C@@H](CCC4=C(Br)C(=O)C=C[C@@]43O)[C@@H]1CCC2=O ?
Result: > 100 µM

Task: Which TGI is listed for N#C/C(=C1/c2cc([N+](=O)[O-])ccc2-c2c1cc([N+](=O)[O-])cc2[N+](=O)[O-])N1CCCCC1 ?
Result: > 100 µM

###

# Lookup of reported TGI keyed by entry
# Tested on: MDA-N
# procedure.details: NCI tumour cell line growth inhibition, 48 h
The answer is to be given in µM; state only the numeric part.

In [3]: df
Out[3]:
                                   molecule  test_system  property  result
0  COc1ccc(OC)c(C[P+](c2ccccc2)(c2ccccc2)c2ccccc2)c1        MDA-N       TGI    29.8
1  COC(=O)c1cc(C)ccc1C1CN=NC12Cc1c(C)cc(C)cc1C2=O (configuration not stated)        MDA-N       TGI      42
2  COC(=O)[C@]1(C)CCC[C@@]2(C)[C@@H]3C[C@@H]4[C@H]5C[C@@]3(CC[C@@H]21)C[C@@]45C        MDA-N       TGI    31.8
3  C=CC(OC(C)=O)c1ccc(OC(C)=O)cc1 (configuration not stated)        MDA-N       TGI    10.9
4   Nn1c(Sc2nc3ccccc3c(=O)n2N)nc2ccccc2c1=O        MDA-N       TGI    15.5

Task: Which TGI is listed for CC1CN=C(c2ccc(-c3nc(-c4ccc(C5=NCC(C)N5)cc4)nc(N(C)C)n3)cc2)N1 (configuration not stated) ?
Result: 4.03

Task: Which TGI is listed for CC1(C)C(=O)C=CC2(C)C1CC(O)C1(C)C2CCC2(C)C(c3ccoc3)OC(=O)C3OC321 (configuration not stated) ?
Result: 41.8

Task: Which TGI is listed for COc1cc2c(c(OC)c1OC)-c1ccc(O)c(=O)cc1[C@@H](NC(C)=O)CC2 ?
Result: 34.4
